experiment: Inhibition of HCV genotype 1a NS5A polymerase infected in human HuH7 replicon cells by luciferase reporter gene assay
Binary label based on EC50 with cut-off 50 nM: below gives TRUE, not below gives FALSE.

{"molecule": "CNC(=O)c1c(-c2ccc(F)cc2)oc2cc3c(cc12)CCCCN3C(C)=O", "label_value": "FALSE"}
{"molecule": "CNC(=O)c1c(-c2ccc(F)cc2)oc2cc3c(cc12)C(C)OC(CO)CN3S(C)(=O)=O (centres undefined)", "label_value": "FALSE"}
{"molecule": "CNC(=O)c1c(-c2ccc(F)cc2)oc2cc3c(cc12)[C@@H](C)NC(=O)CN3S(C)(=O)=O", "label_value": "FALSE"}
{"molecule": "CNC(=O)c1c(-c2ccc(F)cc2)oc2cc3c(cc12)[C@H](C)N(C)C(=O)CN3S(C)(=O)=O", "label_value": "FALSE"}

Determine whether this molecule shows EC50 lower than 50 nM (ties excluded): CNC(=O)c1c2cc3c(cc2nn1-c1ccc(F)cc1)N(S(C)(=O)=O)CCCC3C (centres undefined)
FALSE

Determine whether this molecule shows EC50 lower than 50 nM (ties excluded): CNC(=O)c1c(-c2ccc(F)cc2)oc2cc3c(cc12)[C@@H](C)OC1(CC1)CN3S(C)(=O)=O
FALSE

Determine whether this molecule shows EC50 lower than 50 nM (ties excluded): CNC(=O)c1c(-c2ccc(F)cc2)oc2cc3c(cc12)[C@H](C)O[C@@H](CS(C)(=O)=O)CN3S(C)(=O)=O
FALSE

Determine whether this molecule shows EC50 lower than 50 nM (ties excluded): CNC(=O)c1c(-c2ccc(F)cc2)oc2cc3c(cc12)C1CC1CCN3S(C)(=O)=O (centres undefined)
TRUE

Determine whether this molecule shows EC50 lower than 50 nM (ties excluded): CS(=O)(=O)N1CCCCc2cc3c(-c4ncc[nH]4)c(-c4ccc(F)cc4)oc3cc21
TRUE

Determine whether this molecule shows EC50 lower than 50 nM (ties excluded): CNC(=O)c1c(-c2ccc(F)cc2)oc2cc3c(cc12)C(C)OC1(CC1)CN3S(C)(=O)=O (centres undefined)
FALSE
